biological target: hResistin (Homo sapiens (Human), UniProt Q9HD89); experiment: Evaluation of the ability to inhibit TNF-α secretion by hResistin (THP-1 cells, ELISA); format: cell-based; details: 5 μM, inhibition of TNF-α secretion by hResistin in THP-1 cells
Sequence (Q9HD89 19-108): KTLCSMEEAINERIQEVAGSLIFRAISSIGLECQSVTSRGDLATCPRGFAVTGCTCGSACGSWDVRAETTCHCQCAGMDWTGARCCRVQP
Counter-ions that a name gives are not always drawn.
Listed here: items and their measured inhibition at 5 µM.
metric.name: inhibition at 5 µM

CC(C)(N)C(=O)N1CCN(c2nnc(Oc3ccc(Cl)cc3)c3ccccc23)CC1 [Example 94, hydrochloride] = 29.9%
CC(C)(N)C(=O)N1CCN(c2nnc(-c3ccc(OC(F)(F)F)cc3)c3ccccc23)CC1 [Example 103, hydrochloride] = 32%
OCCC1CCN(c2nnc(-c3ccc(Cl)cc3)c3ccccc23)CC1 = 40.4%
O=C(C1CCCCN1)N1CCN(c2nnc(-c3ccc(Cl)cc3)c3ccccc23)CC1 (stereo not shown) [Example 78, hydrochloride] = 81.3%

---

target: hResistin (Homo sapiens (Human), UniProt Q9HD89); test: Evaluation of the ability to inhibit TNF-α secretion by hResistin (THP-1 cells, ELISA); details: THP-1 human monocyte cell line, human recombinant Resistin
pIC50: −log10 of the molar value. Counter-ions that a name gives are not always drawn.
metric.name: pIC50

CNC1CCN(c2nnc(-c3ccc(Cl)cc3)c3ccc(Cl)cc23)C1 (centres unmarked) [Example 89, hydrochloride] = 5.74
O=S(=O)(C1CCCC1)N1CCN(c2nnc(-c3ccc(Cl)cc3)c3ccccc23)CC1 = 5.52
Clc1ccc(-c2nnc(N3CCC4CCNC4C3)c3ccccc23)cc1 (centres unmarked) [Example 87, hydrochloride] = 5.77
CNC1CCN(c2nnc(-c3ccc(Cl)cc3)c3cc(Cl)ccc23)C1 (centres unmarked) [Example 90, hydrochloride] = 6.05
NC(=O)CC(N)C(=O)N1CCN(c2nnc(-c3ccc(Cl)cc3)c3ccccc23)CC1 (centres unmarked) [Example 85, hydrochloride] = 5.27
OCCC1CCN(c2nnc(-c3ccc(Cl)cc3)c3ccccc23)CC1 = 5.80
CNC1CCN(c2nnc(Oc3ccc(Cl)cc3)c3ccccc23)C1 (centres unmarked) [Example 93, hydrochloride] = 5.72
NCCN1CCN(c2nnc(-c3ccc(Cl)cc3)c3ccccc23)CC1 [Example 38, hydrochloride] = 5.10
COCCN1CCN(c2nnc(-c3ccc(Cl)cc3)c3ccccc23)CC1 = 5.43
NC(CCC(=O)O)C(=O)N1CCN(c2nnc(-c3ccc(Cl)cc3)c3ccccc23)CC1 (centres unmarked) [Example 86, hydrochloride] = 4.74
CC[C@H](C)[C@H](N)C(=O)N1CCN(c2nnc(-c3ccc(Cl)cc3)c3ccccc23)CC1 [Example 60, hydrochloride] = 5.72

---

biological target: hResistin (Homo sapiens (Human)); test: Evaluation of the ability to inhibit TNF-α secretion by hResistin (THP-1 cells, ELISA); assay type: cell-based; conditions: 5 μM, inhibition of TNF-α secretion by hResistin in THP-1 cells
Structures can show the parent of a compound that is named as a salt.
Measured inhibition at 5 µM by item
metric.name: inhibition at 5 µM (%)

O=C([C@@H]1CCCN1)N1CCN(c2nnc(-c3ccc(Cl)cc3)c3ccccc23)CC1 [Example 59, hydrochloride] = 60.3
N[C@H](C(=O)N1CCN(c2nnc(-c3ccc(Cl)cc3)c3ccccc23)CC1)c1ccccc1 [Example 80, hydrochloride] = 69.9
CC(=O)NC1CCN(c2nnc(-c3ccc(Cl)cc3)c3ccccc23)C1 (centres unmarked) = 77.6
CC(C)[C@H](N)C(=O)N1CCN(c2nnc(-c3ccc(Cl)cc3)c3ccccc23)C[C@H]1C [Example 71, hydrochloride] = 42.2
CNC1CCN(c2nnc(-c3ccc(Cl)cc3)c3ccccc23)C1 (centres unmarked) [Example 46, hydrochloride] = 97.8
CNC1CCN(c2nnc(-c3ccc(Cl)cc3)c3cc(Cl)ccc23)C1 (centres unmarked) [Example 90, hydrochloride] = 86.7
NCCN1CCN(c2nnc(-c3ccc(Cl)cc3)c3ccccc23)CC1 [Example 38, hydrochloride] = 69.5
CNC1CCN(c2nnc(Nc3ccc(Cl)cc3)c3ccccc23)C1 (centres unmarked) = 26.9
Clc1ccc(-c2nnc(N3CCCN(Cc4ccccc4)CC3)c3ccccc23)cc1 = 38.9
C[C@@H]1CN(c2nnc(-c3ccc(Cl)cc3)c3ccccc23)CCN1C(=O)C(C)(C)N [Example 70, hydrochloride] = 61.4
Clc1ccc(-c2nnc(N3CCN(CC4CC4)CC3)c3ccccc23)cc1 = 54
CC(C)[C@H](N)C(=O)N1CCC(c2nnc(-c3ccc(Cl)cc3)c3ccccc23)CC1 [Example 61, hydrochloride] = 21.2
CC(C)[C@H](N)C(=O)N1CCN(c2nnc(-c3ccc(Cl)cc3)c3ccccc23)CC1 [Example 47, hydrochloride] = 87.1
C[C@H]1CN(c2nnc(-c3ccc(Cl)cc3)c3ccccc23)CCN1C(=O)C(C)(C)N [Example 72, hydrochloride] = 72.2
C[C@H]1CN(C(=O)C(C)(C)N)CCN1c1nnc(-c2ccc(Cl)cc2)c2ccccc12 [Example 74, hydrochloride] = 38.7
CC(C)(C)C(N)C(=O)N1CCN(c2nnc(-c3ccc(Cl)cc3)c3ccccc23)CC1 (centres unmarked) [Example 77, hydrochloride] = 46.7
CNC1CCN(c2nnc(-c3ccc(Cl)cc3)c3ccc(Cl)cc23)C1 (centres unmarked) [Example 89, hydrochloride] = 77.9
